Answer each item with its documented TGI.
- Tested on: CCRF-CEM leukemia
- PROTOCOL: NCI tumour cell line growth inhibition, 48 h

Some solved cases for reference:
- MOLECULE: "S=c1ncc2n[nH]nc2[nH]1"
  OBSERVED PROPERTY: "TGI"
  RESULT: "> 100 µM"
- MOLECULE: "COC1C(O)CC(OC2CC(OC3CC(O[C@@H]4C(=O)c5c(cc6cc(OC7CC(OC8CC(O)C(O)C(C)O8)C(O)C(C)O7)c(C)c(O)c6c5O)CC4[C@H](OC)C(=O)C(C)=O)OC(C)C3O)OC(C)C2O)OC1C (stereo not given in full)"
  OBSERVED PROPERTY: "TGI"
  RESULT: "0.673 µM"
- MOLECULE: "O=C(O)CCc1ccc(-c2ccccc2)[nH]1"
  OBSERVED PROPERTY: "TGI"
  RESULT: "> 100 µM"
- MOLECULE: "CS(=O)(=O)c1ccc(Oc2cc(F)cc(C#N)c2)c2c1[C@H](O)[C@H](F)[C@H]2F"
  OBSERVED PROPERTY: "TGI"
  RESULT: "> 100 µM"
- MOLECULE: "CCCCCCCCCCCCCCCCCC(=O)NCC(COP(=O)([O-])OCC[N+](C)(C)C)OC (stereo not given)"
  OBSERVED PROPERTY: "TGI"
  RESULT: "5.66 µM"

Give me TGI for each of these molecules, listed below.
1. CCOC(=O)/C(=N/Nc1ccc(C)cc1)N1C(=S)C=C(C)NN(C)C1=S
2. COc1ccc(-n2c(N)c(C#N)c(C#N)c2-c2cccc([N+](=O)[O-])c2)cc1
3. CN(C)c1ccc(/C=C(\C#N)c2nc(-c3cc4ccccc4oc3=O)cs2)cc1

1: > 100 µM; 2: > 100 µM; 3: > 50 µM

# per-item lookup of TGI; items listed below
1. Cc1nc2ccc(Nc3nc(Cl)nc(Nc4ccc(F)cc4)n3)cc2n1Cc1ccccc1
2. O=C(O)CCn1cnc2c(=S)nc[nH]c21

1. > 100 µM
2. > 100 µM

* * *

- Tested on: SF-539 CNS
A correct response names exactly one class from 1 (yes) = active, 0 (no) = inactive

Worked examples follow.
- COMPOUND: "Nc1ccn(C2OC(CO)C(O)C2(F)F)c(=O)n1 (stereo unspecified)"
  TEST SYSTEM: "SF-539 CNS"
  ASSIGNED CATEGORY: "1 (yes)"
- COMPOUND: "CCN(Cc1ccccc1F)c1ccc(CO)c(Cl)c1"
  TEST SYSTEM: "SF-539 CNS"
  ASSIGNED CATEGORY: "0 (no)"
- COMPOUND: "O=C(O)CN(CCN(CC(=O)O)CC(=O)O)CC(=O)O"
  TEST SYSTEM: "SF-539 CNS"
  ASSIGNED CATEGORY: "0 (no)"
- COMPOUND: "O=C(Cc1csc2nc(-c3ccc(Br)cc3)cn12)N/N=C/c1ccccc1"
  TEST SYSTEM: "SF-539 CNS"
  ASSIGNED CATEGORY: "0 (no)"
- COMPOUND: "COc1cc(/C=C2\\CN(S(=O)(=O)c3ccc(C)cc3)C/C(=C\\c3cc(CN4CCOCC4)c(O)c(OC)c3)C2=O)cc(CN2CCOCC2)c1O"
  TEST SYSTEM: "SF-539 CNS"
  ASSIGNED CATEGORY: "0 (no)"

What did this assay record as the result for CCN(CC)c1ccc(C2=NN(C(C)=O)C(c3cc(OC)c(OC)c(OC)c3)C2)cc1 (stereo unspecified) ? 1 (yes)

What outcome does the record of this test show for COc1ccc([As]=[As]c2ccc(OC)c(NCS(=O)(=O)O)c2)cc1NCS(=O)(=O)O (stereo unspecified) ? 0 (no)
